Target: human bradykinin 1 receptor (B1R) (Homo sapiens)
Construct: expressed in transfected cells; host or cells: CHO K1 cells
Sequence (P46663 whole entry): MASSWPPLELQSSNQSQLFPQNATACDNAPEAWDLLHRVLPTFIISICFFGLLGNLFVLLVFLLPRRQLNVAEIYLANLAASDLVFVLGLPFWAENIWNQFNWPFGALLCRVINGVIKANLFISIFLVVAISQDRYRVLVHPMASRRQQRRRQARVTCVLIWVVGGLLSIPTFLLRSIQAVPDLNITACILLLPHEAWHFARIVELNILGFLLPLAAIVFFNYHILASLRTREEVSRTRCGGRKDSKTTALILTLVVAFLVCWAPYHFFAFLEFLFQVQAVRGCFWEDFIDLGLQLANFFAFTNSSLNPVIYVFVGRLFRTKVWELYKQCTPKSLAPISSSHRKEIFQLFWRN
Assay: Functional investigation on the human bradykinin 1 receptor (B1R), Ca2+ FLIPR assay in CHO K1 hB1R cells
Type: cell-based
Details: CHO-K1, B1R antagonism human; test substance 10 μM; Ca2+ FLIPR, CHO K1 hB1R cells; read-out: B1R Ant. h [10 μM] % Inhibition
From the text: Functional Investigation on the Human Bradykinin 1 Receptor (B1R) The agonistic or antagonistic action of substances can be determined on the bradykinin 1 receptor (B1R) of the human species and rats with the following assay. In accordance with this assay, the Ca^2+ inflow through the channel is quantified with the aid of a Ca^2=-sensitive dyestuff (type Fluo-4, Molecular Probes Europe BV, Leiden, Holland) in a fluorescent imaging plate reader (FLIPR, Molecular Devices, Sunnyvale, USA). […]
inhibition at 10 µM reference
Recorded Endpoint: inhibition at 10 µM (%)

1. COc1cc(C)c(S(=O)(=O)N2CCCC(COCC(=O)NCC3CCC(C(c4ccccc4)N4CCOCC4)CC3)C2)c(C)c1 (stereo not shown) : 18
2. CN(C)C(c1cccc(F)c1)C1CCC(NC(=O)COCCN(C)S(=O)(=O)c2ccc(Cl)cc2)CC1 (stereo not shown) : 6
3. CN(C)C(c1cccc(F)c1)C1CCC(CNC(=O)COCCN(C)S(=O)(=O)c2ccc(Cl)cc2)CC1 (stereo not shown) : 20
4. COc1cc(C)c(S(=O)(=O)N(C)CCOCC(=O)NCC2CCC(C(c3ccccc3)N(C)C)CC2)c(C)c1 (stereo not shown) : 102
5. COc1cc(C)c(S(=O)(=O)N2CCCC2COCC(=O)NC2CCC(C(c3ccccc3)N3CCCC3)CC2)c(C)c1 (stereo not shown) : 105
6. COc1cc(C)c(S(=O)(=O)N2CCC(OCC(=O)NCCC3CCC(C(c4cccs4)N(C)C)CC3)CC2)c(C)c1C (stereo not shown) : 10
7. CN(C)C(c1cccc(F)c1)C1CCC(NC(=O)COCCN(C)S(=O)(=O)c2c(Cl)cccc2Cl)CC1 (stereo not shown) : 68
